- System: Staphylococcus aureus
- Test Details: Antimicrobial activity against Staphylococcus aureus ATCC 13709 after 20 to 24 hrs
- Format: functional
Exercise: for every item that follows, state its recorded MIC.

Can you give me MIC for all of these, one by one?
1. NC[C@@H]1O[C@H](O[C@H]2[C@@H](OCCNCC3CCCNC3)[C@H](O[C@@H]3[C@@H](O)[C@H](N)C[C@H](N)[C@H]3O[C@H]3O[C@H](CO)[C@@H](O)[C@H](O)[C@H]3N)O[C@@H]2CO)[C@H](N)[C@@H](O)[C@@H]1O (stereo partly drawn)
2. NC[C@@H]1O[C@H](O[C@H]2[C@@H](O)[C@H](O[C@@H]3[C@@H](O)[C@H](N)C[C@H](N)[C@H]3O[C@H]3O[C@H](CO)[C@@H](O)[C@H](O)[C@H]3N)O[C@@H]2CO)[C@H](N)[C@@H](O)[C@@H]1O [PAROMOMYCIN]

A:
["3 µg/mL", "1 µg/mL"]

Can you give me MIC for all of these, one by one?
1. NC[C@@H]1O[C@H](O[C@H]2[C@@H](OCCOCCCc3ccccc3)[C@H](O[C@@H]3[C@@H](O)[C@H](N)C[C@H](N)[C@H]3O[C@H]3O[C@H](CO)[C@@H](O)[C@H](O)[C@H]3N)O[C@@H]2CO)[C@H](N)[C@@H](O)[C@@H]1O
2. N[C@H]1[C@@H](O[C@H]2[C@H](O[C@@H]3O[C@H](CO)[C@@H](O)[C@H]3OCCNCCc3ccccc3)[C@@H](O)[C@H](N)C[C@@H]2N)O[C@H](CO)[C@@H](O)[C@@H]1O
3. NC[C@@H]1O[C@H](O[C@H]2[C@@H](OCC(O)c3ccccc3)[C@H](O[C@@H]3[C@@H](O)[C@H](N)C[C@H](N)[C@H]3O[C@H]3O[C@H](CO)[C@@H](O)[C@H](O)[C@H]3N)O[C@@H]2CO)[C@H](N)[C@@H](O)[C@@H]1O (stereo partly drawn)
4. NC[C@@H]1O[C@H](O[C@H]2[C@@H](OCCNCc3ccccc3)[C@H](O[C@@H]3[C@@H](O)[C@H](N)C[C@H](N)[C@H]3O[C@H]3O[C@H](CO)[C@@H](O)[C@H](O)[C@H]3N)O[C@@H]2CO)[C@H](N)[C@@H](O)[C@@H]1O
5. COc1cc(CCNCCO[C@H]2[C@H](O[C@@H]3[C@@H](O)[C@H](N)C[C@H](N)[C@H]3O[C@H]3O[C@H](CO)[C@@H](O)[C@H](O)[C@H]3N)O[C@H](CO)[C@H]2O[C@H]2O[C@@H](CN)[C@@H](O)[C@H](O)[C@H]2N)cc(OC)c1

A:
1: 5 µg/mL; 2: 12 µg/mL; 3: 3 µg/mL; 4: 3 µg/mL; 5: 5 µg/mL

Sure, the documented MIC for NC[C@@H]1O[C@H](O[C@H]2[C@@H](OCCNCc3ccnc(N)c3)[C@H](O[C@@H]3[C@@H](O)[C@H](N)C[C@H](N)[C@H]3O[C@H]3O[C@H](CO)[C@@H](O)[C@H](O)[C@H]3N)O[C@@H]2CO)[C@H](N)[C@@H](O)[C@@H]1O is 0.6 µg/mL
